Molecular target: hAhR (Homo sapiens)
Construct: Stably integrated DRE-luciferase cell lines were generated by transducing the both cell lines with Cignal XRE luciferase reporter; endogenous in cells
Sequence (P35869 11-848): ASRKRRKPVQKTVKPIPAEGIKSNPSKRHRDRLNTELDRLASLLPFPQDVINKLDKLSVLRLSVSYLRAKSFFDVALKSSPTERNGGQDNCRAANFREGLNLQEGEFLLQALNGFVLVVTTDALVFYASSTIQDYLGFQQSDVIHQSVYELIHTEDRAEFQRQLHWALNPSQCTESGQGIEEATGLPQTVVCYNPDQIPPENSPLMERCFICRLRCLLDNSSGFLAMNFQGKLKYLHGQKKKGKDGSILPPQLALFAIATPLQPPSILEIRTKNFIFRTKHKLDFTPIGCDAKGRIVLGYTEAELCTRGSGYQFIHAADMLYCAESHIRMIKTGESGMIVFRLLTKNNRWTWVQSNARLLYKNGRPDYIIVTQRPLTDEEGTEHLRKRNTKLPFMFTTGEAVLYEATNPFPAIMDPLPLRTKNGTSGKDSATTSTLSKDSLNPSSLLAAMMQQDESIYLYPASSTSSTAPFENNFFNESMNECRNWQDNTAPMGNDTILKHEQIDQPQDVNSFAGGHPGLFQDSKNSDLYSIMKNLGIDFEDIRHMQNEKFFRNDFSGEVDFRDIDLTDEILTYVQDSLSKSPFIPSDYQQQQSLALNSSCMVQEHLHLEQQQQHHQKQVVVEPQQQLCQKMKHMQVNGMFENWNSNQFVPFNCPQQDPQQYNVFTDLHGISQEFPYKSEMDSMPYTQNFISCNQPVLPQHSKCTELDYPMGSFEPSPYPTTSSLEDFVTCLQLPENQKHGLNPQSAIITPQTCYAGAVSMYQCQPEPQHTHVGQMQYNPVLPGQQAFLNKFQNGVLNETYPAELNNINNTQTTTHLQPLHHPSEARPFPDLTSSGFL
Assay: DRE-luciferase transcriptional reporter assay in HEPG2 DRE-Luc cells, TCDD-induced (antagonist mode)
Conditions: relative IC50, 3 nM TCDD, 24-hour incubation, firefly luciferase readout
pIC50: −log10 of the molar value.
quantity: pIC50

Recorded results for 3 molecules are shown here.
INSERT INTO assay_data (chemical_string, quantity, result) VALUES
  ('Cc1cc(-c2ncc3cc(C(F)(F)F)ccc3n2)ccc1N1CCn2ncc(C(=O)O)c2C1=O', 'pIC50', '6.00 to 6.30'),
  ('Cc1cc(-c2ncc3nc(C(F)(F)F)ccc3n2)ccc1N1CCOc2cn[nH]c2C1=O', 'pIC50', '> 6.70'),
  ('Cc1cc(-c2ncc3cc(C(F)(F)F)ccc3n2)ccc1N1CCn2nc(C(=O)O)c(C)c2C1=O', 'pIC50', '6.30 to 6.70');

Query string: Identify the measured pIC50 of Cc1cc(-c2ncc3cc(C(F)(F)F)ccc3n2)ccc1N1CCOc2cnn(CC#N)c2C1=O for hAhR (Homo sapiens).
Result string: > 6.70

Query string: Form: Entry = Cc1cc(-c2ccc3nc(C(F)(F)F)cc(C)c3n2)ccc1N1CCOc2cnn(C)c2C1=O | System = hAhR (Homo sapiens) | pIC50 = ____
Result string: > 6.70

Query string: What value of pIC50 on hAhR (Homo sapiens) does Cn1ncc2c1C(=O)N(c1ccc(-c3ncc4nc(C(F)(F)F)ccc4n3)cc1)CCO2 have?
Result string: > 6.70

Query string: API: value(readout=pIC50, system=hAhR (Homo sapiens)) for record Cc1cc(N2CCn3ncc(C)c3C2=O)c(C)cc1-c1ncc2cc(C(F)(F)F)ccc2n1
Result string: 6.30 to 6.70

Query string: Form entry - test system: hAhR (Homo sapiens); read-out: pIC50; molecule: Cc1cc(N2CCn3ncc(C)c3C2=O)c(F)cc1-c1ccc2nc(C(F)(F)F)cc(C)c2n1
Result string: > 6.70
